- study.target: human OCT1*1 (wild-type) (Homo sapiens, UniProt O15245)
- measurement.protocol: Concentration-dependent uptake (transport kinetics) in HEK293 cells overexpressing OCT1 wild-type
- assay.conditions: read-out: KM (±SEM); net uptake (OCT1 minus empty vector), HEK293, 0.1-1000 µM substrate, Michaelis–Menten
property: Km (µM)

> print(dat)
          smiles.structure  assay.value
1  C[n+]1ccc(-c2ccccc2)cc1          108

----------
- study.target: human OCT1*1 (wild-type) (Homo sapiens, UniProt O15245)
- Sequence (O15245 1-554): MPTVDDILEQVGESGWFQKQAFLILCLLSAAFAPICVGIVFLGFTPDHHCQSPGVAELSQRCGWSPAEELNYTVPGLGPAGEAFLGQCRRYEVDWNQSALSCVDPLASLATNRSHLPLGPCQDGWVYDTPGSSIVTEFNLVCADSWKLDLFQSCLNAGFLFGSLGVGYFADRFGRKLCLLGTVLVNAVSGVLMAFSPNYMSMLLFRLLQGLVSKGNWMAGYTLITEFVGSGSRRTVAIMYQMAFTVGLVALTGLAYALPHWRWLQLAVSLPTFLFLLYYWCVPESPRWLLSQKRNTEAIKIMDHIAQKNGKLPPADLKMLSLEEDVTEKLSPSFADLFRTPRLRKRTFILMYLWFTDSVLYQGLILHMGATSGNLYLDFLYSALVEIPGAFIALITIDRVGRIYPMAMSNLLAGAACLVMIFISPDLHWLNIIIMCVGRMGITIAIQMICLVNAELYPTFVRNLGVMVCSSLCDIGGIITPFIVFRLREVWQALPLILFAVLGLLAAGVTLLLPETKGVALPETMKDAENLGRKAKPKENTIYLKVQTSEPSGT
- measurement.protocol: Concentration-dependent uptake (transport kinetics) in HEK293 cells overexpressing OCT1 wild-type
- assay.conditions: net uptake (OCT1 minus empty vector), HEK293, 0.1-1000 µM substrate, Michaelis–Menten
property: Vmax (±SEM) (pmol/mg Protein/min)

> print(dat)
                                   compound     property         readout.unit  assay.value
1  CCCCC[C@H](O)/C=C/[C@H]1[C@H](O)CC(=O)[C@@H]1C/C=C\CCCC(=O)O [Prostaglandin E2, prostaglandin E2]  Vmax (±SEM)  pmol/mg Protein/min         4119
2  C[N+]1(C)CCC[C@H]1C(=O)[O-] [Stachydrine, stachydrine]  Vmax (±SEM)  pmol/mg Protein/min          238
3  CCCCC[C@H](O)/C=C/[C@@H]1[C@@H](C/C=C\CCCC(=O)O)[C@@H](O)C[C@H]1O [Prostaglandin F2α, prostaglandin F2α]  Vmax (±SEM)  pmol/mg Protein/min         1007
4  CNC(=C[N+](=O)[O-])NCCSCc1ccc(CN(C)C)o1 [Ranitidin, ranitidine]  Vmax (±SEM)  pmol/mg Protein/min         1047
5  C[n+]1ccc(-c2ccccc2)cc1 [MPP^+, 1-methyl-4-phenylpyridinium]  Vmax (±SEM)  pmol/mg Protein/min         2263
6  COc1cc(Cc2cnc(N)nc2N)cc(OC)c1OC [Trimethoprim, trimethoprim]  Vmax (±SEM)  pmol/mg Protein/min          300
7  N=C(N)c1ccc(OCCCCCOc2ccc(C(=N)N)cc2)cc1 [Pentamidine, pentamidine]  Vmax (±SEM)  pmol/mg Protein/min          143
8  N[C@@H](Cc1ccc(O)c(O)c1)C(=O)O [Levodopa, levodopa]  Vmax (±SEM)  pmol/mg Protein/min         4993
